# Target under test: MIF (Homo sapiens, UniProt P14174)
# Assay explanation: MIF degradation in A549 cells, cell lysate-based ELISA
# Parameters: endogenous in cells; host or cells: A549 (ATCC CCL-185)
# Condition info: A549 cells, 2 µM, 12 h, vs DMSO, mean±SD n=3
Test readout: degradation [%] 2 μM

[[record]]
compound = "O=C1CCC(N2C(=O)c3cccc(NCc4cn(CC(=O)Nc5ccc(-c6cc7ccc(O)cc7oc6=O)cc5)nn4)c3C2=O)C(=O)N1 (stereo not shown)"
test_result = "n.s."

[[record]]
compound = "O=C(Cc1ccc(N2Cc3ccc(O)cc3OC2=O)cc1)NCc1cn(-c2ccc(CC(=O)Nc3cccc4c3C(=O)N(C3CCC(=O)NC3=O)C4=O)cc2)nn1 (stereo not shown)"
test_result = "n.s."

[[record]]
compound = "O=C1CCC(N2C(=O)c3cccc(NC(=O)CCCCc4cn(CC(=O)Nc5ccc(-c6cc7ccc(O)cc7oc6=O)cc5)nn4)c3C2=O)C(=O)N1 (stereo not shown)"
test_result = "n.s."

[[record]]
compound = "O=C(CCCCNc1cccc2c1C(=O)N(C1CCC(=O)NC1=O)C2=O)NCc1ccc(N2Cc3ccc(O)cc3OC2=O)cc1 (stereo not shown)"
test_result = "21±7%"


---

# Target under test: MIF (Homo sapiens)
# Sequence (P14174 2-115 limits assumed): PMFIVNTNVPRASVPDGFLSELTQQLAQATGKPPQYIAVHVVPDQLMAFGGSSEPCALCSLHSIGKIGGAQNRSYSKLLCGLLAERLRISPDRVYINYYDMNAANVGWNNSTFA
# Assay explanation: MIF degradation in A549 cells, cell lysate-based ELISA
# Set-up: endogenous in cells; host or cells: A549 (ATCC CCL-185)
# Condition info: A549, 12 h, A549 cells, 20 µM, 12 h, vs DMSO, mean±SD n=3
Test readout: Dmax at 20 µM (%)

[[record]]
molecule = "O=C(Cc1ccc(N2Cc3ccc(O)cc3OC2=O)cc1)NCc1cn(-c2ccc(CC(=O)Nc3cccc4c3C(=O)N(C3CCC(=O)NC3=O)C4=O)cc2)nn1 (stereo not drawn)"
test_result = 38

[[record]]
molecule = "O=C1CCC(N2C(=O)c3cccc(NCc4cn(CC(=O)Nc5ccc(-c6cc7ccc(O)cc7oc6=O)cc5)nn4)c3C2=O)C(=O)N1 (stereo not drawn)"
test_result = 16

[[record]]
molecule = "O=C1CCC(N2C(=O)c3cccc(NC(=O)CCc4cn(CC(=O)Nc5ccc(-c6cc7ccc(O)cc7oc6=O)cc5)nn4)c3C2=O)C(=O)N1 (stereo not drawn)"
test_result = 31


From: paper PMC8362126
